Just for reference, ChEMBL document CHEMBL1154905 is where these values come from.

Reported inhibition values follow for various molecules
Test system: human gammaherpesvirus 4
Experiment: Inhibition of TPA-induced EBV early antigen activation at 16 uM

Molecule: CC[C@@H](C)CC[C@H]1[C@@H](C)CC[C@H]2C(C)(C)CCC[C@]12C
Value unit: %
inhibition: 51.9

Molecule: CC(=O)Oc1c(C(C)C)cc(C=O)c2c1[C@H](OC(C)=O)[C@H]1C(C)(C)CCC[C@]21C [STANDISHINAL DIACETATE]
Value unit: %
inhibition: 30.5

Molecule: CC1=C(/C=C/C(C)=C/C=C/C(C)=C/C=C/C=C(C)/C=C/C=C(C)/C=C/C2=C(C)CCCC2(C)C)C(C)(C)CCC1
Value unit: %
inhibition: 66

Molecule: CC(C)c1cc(C=O)c2c(c1O)[C@H](O)[C@H]1C(C)(C)CCC[C@]21C
Value unit: %
inhibition: 32
